target: recombinant human ASK1 kinase (Homo sapiens (Human), UniProt Q99683); test: TR-FRET ASK1 (Apoptosis Signal-Regulating Kinase 1) kinase assay; assay type: biochemical; conditions: 4 nM ASK1, 1 μM STK3 peptide substrate, 100 μM ATP, HTRF detection; average of quadruplicate determination; read-out: IC50 (nM), activities of the compounds of Formula (I) to ASK1
Sequence (Q99683 whole entry): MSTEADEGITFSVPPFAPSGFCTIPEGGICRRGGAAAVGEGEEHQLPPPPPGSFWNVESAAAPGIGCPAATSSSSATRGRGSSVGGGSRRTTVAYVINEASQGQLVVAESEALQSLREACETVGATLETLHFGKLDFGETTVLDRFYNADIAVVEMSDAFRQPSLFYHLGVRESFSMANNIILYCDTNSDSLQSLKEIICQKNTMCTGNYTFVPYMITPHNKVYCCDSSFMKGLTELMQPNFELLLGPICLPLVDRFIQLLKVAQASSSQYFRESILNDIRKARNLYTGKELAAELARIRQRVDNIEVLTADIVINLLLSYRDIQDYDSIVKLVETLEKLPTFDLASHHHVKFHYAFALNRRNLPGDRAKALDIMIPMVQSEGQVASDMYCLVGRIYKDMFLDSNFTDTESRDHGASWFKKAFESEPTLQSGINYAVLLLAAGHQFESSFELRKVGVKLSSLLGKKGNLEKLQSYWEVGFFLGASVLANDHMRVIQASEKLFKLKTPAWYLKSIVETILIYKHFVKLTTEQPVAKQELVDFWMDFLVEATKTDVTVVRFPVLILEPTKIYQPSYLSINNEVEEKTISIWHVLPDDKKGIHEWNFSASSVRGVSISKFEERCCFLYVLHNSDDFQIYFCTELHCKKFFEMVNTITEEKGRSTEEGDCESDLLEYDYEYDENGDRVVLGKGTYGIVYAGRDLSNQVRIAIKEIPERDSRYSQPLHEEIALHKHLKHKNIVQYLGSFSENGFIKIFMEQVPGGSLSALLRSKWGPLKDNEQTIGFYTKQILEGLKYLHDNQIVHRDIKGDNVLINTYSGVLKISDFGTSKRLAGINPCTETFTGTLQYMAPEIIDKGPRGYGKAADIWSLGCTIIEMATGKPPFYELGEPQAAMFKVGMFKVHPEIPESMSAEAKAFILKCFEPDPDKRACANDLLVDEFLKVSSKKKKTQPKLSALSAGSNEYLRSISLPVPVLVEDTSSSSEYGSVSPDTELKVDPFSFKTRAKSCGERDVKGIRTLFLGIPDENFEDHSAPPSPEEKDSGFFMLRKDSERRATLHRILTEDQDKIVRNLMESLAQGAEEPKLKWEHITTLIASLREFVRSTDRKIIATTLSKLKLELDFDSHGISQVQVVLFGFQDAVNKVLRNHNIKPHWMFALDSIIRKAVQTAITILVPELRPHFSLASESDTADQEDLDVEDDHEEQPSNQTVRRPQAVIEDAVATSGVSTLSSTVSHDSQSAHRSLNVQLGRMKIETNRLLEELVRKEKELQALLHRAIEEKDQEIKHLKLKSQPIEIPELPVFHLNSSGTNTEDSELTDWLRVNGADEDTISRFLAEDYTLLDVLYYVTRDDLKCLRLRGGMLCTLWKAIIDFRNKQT
MEASURE: IC50 (nM)

input: Param item = `C[C@H](n1cnnc1-c1nc(NC(=O)c2cc(-n3cnc(C4CC4)c3)c(N3CCN(CC(F)(F)F)CC3)cn2)cs1)C(F)(F)F` ; retrieve measured IC50.
output: 1.2

input: IC50 lookup needed for COC1CCN(c2cnc(C(=O)Nc3csc(-c4nncn4[C@@H](C)C(F)(F)F)n3)cc2-n2cnc(C3CC3)c2)C1 (stereo partly shown) , thanks.
output: 1.9

1: C[C@H](n1cnnc1-c1nc(NC(=O)c2cc(-n3cnc(C4CC4)c3)c(N3CC(C)(C#N)C3)cn2)cs1)C(F)(F)F
2: O=C(Nc1csc(-c2nncn2C2CC2)n1)c1cc(-n2cnc(C3CC3)c2)c(N2CCN3CCCC3C2)cn1 (stereo not shown)
input: Smaller IC50 value, 1 vs 2 ? Output the label that corresponds to your choice.
output: 1
